# Test system: LXRb:RXRa (NR concentration 270 nM, RXRa partner concentration 90 nM)
# protocolDescription: PBM binding z-score (relative to random genomic background probes); higher = stronger binding; sequences stand for … in GC…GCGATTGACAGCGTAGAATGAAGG
Please note: Criterion met applies when PBM binding z-score is 2 or greater, and Criterion not met applies otherwise.

INSERT INTO measurements (residuestring, classification) VALUES
  ('TCATATAGGTAATACAGGTGAGAGTCGGCATCTA', 'Criterion not met'),
  ('TCTCGTAGGACACGAAAGGTCAGAGCTCGACATC', 'Criterion met'),
  ('CGTCCAAGGTCAATGCTAGGTCAGTAAAAGCATT', 'Criterion met'),
  ('TCATATAGGAAAACAGGTGAAAGTCCGTAAGTTA', 'Criterion not met'),
  ('GAGACTGGGGCATCAGCAGGTTACCATAACTTAA', 'Criterion not met'),
  ('AGCATGAGGTTAAGATCAGGGAAACAGAATACAT', 'Criterion not met'),
  ('CCAACTGGGCCACGAAAGGTCATTGATTCAGTGA', 'Criterion met'),
  ('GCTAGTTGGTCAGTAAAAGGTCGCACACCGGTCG', 'Criterion not met'),
  ('CCTATTGGTTGACCATAAGGGCAACCGAAGCTCG', 'Criterion not met'),
  ('CCGACTGGAGCAAAGGTTACCATACTCAGTACGA', 'Criterion not met'),
  ('TCATATAGGTAATACATGTGAAAGTCGGCATCTA', 'Criterion not met'),
  ('AGTCAAAGTTCACTAGGTAGCGTAAGATTCAGCT', 'Criterion met');
